# System: Trypanosoma brucei
# TEST METHOD NOTES: Trypanosoma brucei 72 hour study
# Type: functional, organism-based
# Design: scale not given: in the data most compounds retested in dose-response had high values
# CONDITION DESCRIPTION: 30.3 µM; […]
Out of some 66,000 compounds screened, about 960 (1.5%) showed an effect of 50% or more. What follows is part of a selection rich in strong results, with near analogues and random picks from the rest.
PROPERTY LABEL: Percent Effect (%)
Answers are plain numbers, in %.

Some compounds with recorded Percent Effect:
[
  {
    "CPD SMILES": "O=C(c1coc(COc2cccc3cnccc23)n1)N1CCSCC1",
    "READOUT NUMBER": -189.8
  },
  {
    "CPD SMILES": "CCc1noc(CNCCn2cc(C)cn2)n1",
    "READOUT NUMBER": -10.46
  }
]

Entry under test: CN1CCO[C@@H]2CN(C(=O)NCc3ccccc3)CC[C@@H]2C1.O=C(O)C(F)(F)F . Its Percent Effect was -54.53
